Source: paper PMC7268545

molecular target: human ANO1 channel (isoform acd) (Homo sapiens, UniProt Q5XXA6); construct: host or cells: HEK293T; experiment: QPatch-48 automated whole-cell electrophysiology, cumulative five-concentration single-addition protocol; assay type: cell-based; details: independent experiment 3; read-out: IC50s for independent experiments 3
Sequence (Q5XXA6 whole entry, canonical isoform): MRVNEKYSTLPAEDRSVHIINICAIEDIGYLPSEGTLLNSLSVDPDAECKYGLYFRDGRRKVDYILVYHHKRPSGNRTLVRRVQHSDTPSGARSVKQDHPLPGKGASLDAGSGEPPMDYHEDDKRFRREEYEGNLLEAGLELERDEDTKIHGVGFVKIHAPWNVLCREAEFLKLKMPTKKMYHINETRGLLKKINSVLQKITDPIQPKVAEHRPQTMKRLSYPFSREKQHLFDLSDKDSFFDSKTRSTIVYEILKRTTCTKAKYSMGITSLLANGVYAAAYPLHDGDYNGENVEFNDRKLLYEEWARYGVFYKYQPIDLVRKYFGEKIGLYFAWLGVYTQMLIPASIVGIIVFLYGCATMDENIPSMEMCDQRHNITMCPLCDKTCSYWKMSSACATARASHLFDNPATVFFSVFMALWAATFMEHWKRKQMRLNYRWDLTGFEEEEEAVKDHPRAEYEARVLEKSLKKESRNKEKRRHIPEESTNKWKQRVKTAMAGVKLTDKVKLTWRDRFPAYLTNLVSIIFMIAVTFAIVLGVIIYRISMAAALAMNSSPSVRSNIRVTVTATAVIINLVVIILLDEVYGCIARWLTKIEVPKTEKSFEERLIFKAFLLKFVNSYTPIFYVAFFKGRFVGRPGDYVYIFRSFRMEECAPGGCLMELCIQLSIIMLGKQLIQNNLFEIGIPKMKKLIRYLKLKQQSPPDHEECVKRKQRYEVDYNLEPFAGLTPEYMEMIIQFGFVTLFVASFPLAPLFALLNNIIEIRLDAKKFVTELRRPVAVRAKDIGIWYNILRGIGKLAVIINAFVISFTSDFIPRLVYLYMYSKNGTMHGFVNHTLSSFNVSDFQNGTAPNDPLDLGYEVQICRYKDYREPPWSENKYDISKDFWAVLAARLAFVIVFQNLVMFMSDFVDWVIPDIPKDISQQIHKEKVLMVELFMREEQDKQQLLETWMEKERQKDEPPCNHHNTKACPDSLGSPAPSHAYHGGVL
Quick reference: IC50 of the listed items.
Enter your answer as a number in nM; do not include the unit.

>  <MOLECULE>
O=C(O)c1cccnc1Nc1cccc(C(F)(F)F)c1

>  <IC50, nM>
8450

$$$$

Would you mind telling me what IC50 value was observed for "N#Cc1c(C(F)(F)F)cc(O)n2c1nc1ccccc12" ?
1100

Requested field: IC50. Item: "CCc1oc2ccccc2c1C(=O)c1cc(Br)c(O)c(Br)c1"
1310

Item O=C(Nc1ccc([N+](=O)[O-])cc1Cl)c1cc(Cl)ccc1O [Niclosamide] has what recorded IC50?
1050
